Values were extracted from patent US20240325555A1.

- system_tested: T1, human LIV-1 (human, UniProt Q13433 29-755)
- T1 sequence (looked up): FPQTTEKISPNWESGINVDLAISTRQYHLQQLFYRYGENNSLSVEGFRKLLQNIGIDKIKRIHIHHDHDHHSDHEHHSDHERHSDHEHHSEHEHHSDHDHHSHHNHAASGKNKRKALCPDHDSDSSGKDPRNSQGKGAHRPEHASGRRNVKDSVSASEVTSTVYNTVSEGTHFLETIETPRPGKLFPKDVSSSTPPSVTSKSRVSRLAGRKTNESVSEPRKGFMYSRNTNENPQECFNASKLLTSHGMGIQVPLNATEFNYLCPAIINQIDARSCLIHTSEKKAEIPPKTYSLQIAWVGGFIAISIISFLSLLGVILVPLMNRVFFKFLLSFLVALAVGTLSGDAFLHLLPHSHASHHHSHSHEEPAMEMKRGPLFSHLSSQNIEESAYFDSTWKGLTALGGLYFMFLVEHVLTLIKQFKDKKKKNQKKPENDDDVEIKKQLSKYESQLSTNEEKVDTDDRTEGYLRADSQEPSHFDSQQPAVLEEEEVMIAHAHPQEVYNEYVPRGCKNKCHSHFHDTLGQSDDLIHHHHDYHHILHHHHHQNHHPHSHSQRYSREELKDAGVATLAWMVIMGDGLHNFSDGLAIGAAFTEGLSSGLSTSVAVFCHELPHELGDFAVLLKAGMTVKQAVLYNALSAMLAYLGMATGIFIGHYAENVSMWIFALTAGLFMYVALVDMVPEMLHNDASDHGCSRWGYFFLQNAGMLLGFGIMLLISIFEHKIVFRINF
- assay_overview: cell-based or functional assay
Measured Internalization EC50, listed per entry for reference.
Your answer is read as nM, so omit the unit and give the number.

binder: 5D6B10 (antibody, V domains shown, Tested as chimeric antibody) VH: QVQLKQSGPGLVQPSQSLSITCTVSGFSLTTYGIHWVRQSPGKGLEWLGVIWTGGTTDYNAAFISRLSISKDNSKSQVFFKMNSLQANDTAIYYCARGPSSYWGQGTLVTVSA VL: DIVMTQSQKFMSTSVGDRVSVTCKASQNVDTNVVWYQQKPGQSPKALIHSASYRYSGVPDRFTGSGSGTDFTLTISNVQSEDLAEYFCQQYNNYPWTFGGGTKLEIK
test_value: 12.7

# ---- query binder ----
Return reported Internalization EC50; argument: 112H11C12 (antibody, V domains shown, Tested as chimeric antibody; also called 112H1C12) VH: QVQLQQPGAELVRPGASVKLSCKASGYTFTSYWMNWVKQRPGQGLKWIGMIDPSNSKTHYNQMFKDKATLTVDKSSNTAYMQLSSLTSEDSAVYYCARTSTTMATFAYWGQGTLVSVSA VL: DVLMTQTPLSLPVSLGDQASISCRSSQSIVHSNGNTYLEWYLQKPGQSPKLLIYKVSNRFSGVPDRFSGSGSGTDFTLKISRVEAEDLGVYYCFQASHFPLTFGAGTELDLN
13.2
